# system_under_test: T1, human latent myostatin (human, UniProt O14793 25-266; O14793 267-375)
# T1 construct: non-covalent complex of two propeptides and the mature homodimer; also called human myostatin latent form
# T1 sequence 1: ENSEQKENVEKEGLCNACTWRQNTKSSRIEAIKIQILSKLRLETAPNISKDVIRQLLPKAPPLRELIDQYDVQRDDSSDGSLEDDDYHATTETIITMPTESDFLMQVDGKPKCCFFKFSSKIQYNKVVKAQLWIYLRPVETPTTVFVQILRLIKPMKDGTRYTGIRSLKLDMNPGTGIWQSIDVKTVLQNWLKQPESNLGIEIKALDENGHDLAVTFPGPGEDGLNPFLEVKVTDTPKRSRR
# T1 sequence 2: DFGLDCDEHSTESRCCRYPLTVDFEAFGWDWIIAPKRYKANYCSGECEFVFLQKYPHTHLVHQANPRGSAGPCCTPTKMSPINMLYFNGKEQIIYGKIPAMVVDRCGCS
# protocol: SPR, dissociation phase at pH5.8

{"columns": ["binder", "koff"],
 "data": [
  ["Ab007 (M103205H028/M103202L008) (antibody, V domains shown, variant of MS1032LO00-SG1) VH: QVTLKESGPVLVKPTETLTLTCTVSGIDLSSYDISWVRQAPGKGLEWVGIISYAGSTYYASWAKGRLTISKDTSKNQVVLTMTNMDPVDTATYYCARGVPAYSHGGDLWGQGTLVTVSS VL: DIVMTQSPATLSLSPGERATLSCQSSQSVYHNNWLSWFQQKPGQPPKLLIYWASTLASGVPSRFSGSGSGTDFTLTISSLQPEDAATYYCAGGYGGGLYAFGQGTKVEIKR", "0.000415 s⁻¹"]
]}
